Molecular target: GDP-bound KRAS protein (aa 1-169), containing both G12C and C118A amino acid substitutions (Homo sapiens (Human), UniProt P01116, C118A/G12C)
Sequence (P01116 other isoform, or with tags, fused parts or gaps G12C/C118A): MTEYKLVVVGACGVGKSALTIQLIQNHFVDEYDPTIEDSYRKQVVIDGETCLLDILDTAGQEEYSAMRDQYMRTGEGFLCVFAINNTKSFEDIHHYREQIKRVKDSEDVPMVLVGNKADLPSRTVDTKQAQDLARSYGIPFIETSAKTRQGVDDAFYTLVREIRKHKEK
Experiment: Coupled nucleotide exchange assay (SOS-mediated nucleotide exchange, AlphaScreen)
Assay type: biochemical
Details: read-out: Coupled exchange IC50 (5 min; μM); 5 min compound pre-incubation
Could you mark each record YES if its IC50 falls strictly under 1 µM, and NO if it equals or exceeds it?

Example entries and their recorded answers appear below.
C=CC(=O)N1C[C@H](C)N(C2=NCC(=O)N(CC(C)(C)C)c3nc(-c4ccccc4F)c(Cl)cc32)C[C@H]1C [Example 220]; NO
C=CC(=O)N1C[C@H](C)N(c2nc(=O)n(-c3c(C)ccnc3C(C)C)c3nc(-c4nc(C)sc4C)c(Cl)cc23)C[C@H]1C (atropisomer, axis not shown; (M)) [Example 92-71]; NO
C=CC(=O)N1C[C@H](C)N(c2nc(=O)n(-c3c(C)ccnc3C(C)C)c3nc(-c4cc(OC)cc5ccccc45)c(Cl)cc23)C[C@H]1C (atropisomer, axis not shown; (M)) [Example 92-70]; YES
C=CC(=O)N1C[C@H](C)N(c2nc(=O)n(-c3c(C)cc([S+](C)[O-])cc3C(C)C)c3nc(-c4ccccc4C)c(Cl)cc23)C[C@H]1C (stereo partly drawn) [Example 213]; YES
C=CC(=O)N1C[C@H](C)N(c2nc(=O)n(-c3c(C)ccnc3C(C)C)c3nc(-c4ccccc4F)c(C)nc23)C[C@H]1C (single isomer, unassigned) [Example 225]; NO

Okay, next one:
Ask: Does the reported IC50 of C=CC(=O)N1C[C@H](C)N(c2nc(=O)n(-c3c(C(C)C)ncnc3C(C)C)c3nc(-c4ccc(F)cc4F)c(F)cc23)C[C@H]1C [Example 153] stay below 1 µM?
Result: YES

---

Target: GDP-bound KRAS protein (aa 1-169), containing both G12C and C118A amino acid substitutions (Homo sapiens (Human), UniProt P01116, C118A/G12C)
Assay: Coupled nucleotide exchange assay (SOS-mediated nucleotide exchange, AlphaScreen)
Assay type: biochemical
Settings: read-out: Coupled exchange IC50 (5 min; μM); 5 min compound pre-incubation
Could you mark each record 1 (yes) if its IC50 falls strictly under 0.06 µM, and 0 (no) if it equals or exceeds it?

Ask: Does the reported IC50 of C=CC(=O)N1C[C@H](C)N(c2nc(=O)n(-c3c(C)ccnc3C(C)C)c3nc(-c4cccc(F)c4OC)c(Cl)cc23)C[C@H]1C (atropisomer, axis not shown; (M)) stay below 0.06 µM?
Result: 1 (yes)

---

Biological target: GDP-bound KRAS protein (aa 1-169), containing both G12C and C118A amino acid substitutions (Homo sapiens (Human), UniProt P01116, C118A/G12C)
Assay: Coupled nucleotide exchange assay (SOS-mediated nucleotide exchange, AlphaScreen)
Format: biochemical
Settings: 5 min compound pre-incubation
Reported property: Coupled exchange IC50 (5 min; μM) (µM)
Lab book: enter the figure in µM, no units written.

C=CC(=O)N1C[C@H](C)N(c2nc(=O)n(-c3c(C)ncnc3C(C)C)c3nc(-c4ccccc4F)c(Cl)cc23)C[C@H]1C (single isomer, unassigned) [Example 194-1]; 0.067

Ask: Could you tell me which Coupled exchange IC50 (5 min; μM) is on file for C=CC(=O)N1C[C@H](C)N(c2nc(=O)n(-c3c(C)nc(Br)nc3C(C)C)c3nc(-c4ccccc4F)c(Cl)cc23)C[C@H]1C (single isomer, unassigned) [Example 197-2] ?
Result: 0.01

Ask: Try this compound next: C=CC(=O)N1C[C@H](C)N(c2nc(=O)n(-c3c(C)cc([S+](C)[O-])cc3C(C)C)c3nc(-c4ccccc4C)c(Cl)cc23)C[C@H]1C (single isomer, unassigned) [Example 213-3]
Result: 0.066

Ask: Try this compound next: C=CC(=O)N1C[C@H](C)N(c2nc(=O)n(-c3c(C)nc(C4CC4)nc3C(C)C)c3nc(-c4ccccc4F)c(Cl)cc23)C[C@H]1C (single isomer, unassigned)
Result: 0.075

Ask: Try this compound next: C=CC(=O)N1C[C@H](C)N(c2nc(=O)n(-c3c(C)cc(CN(C)C)cc3C(C)C)c3nc(-c4ccccc4F)c(Cl)cc23)C[C@H]1C (single isomer, unassigned) [Example 121-4]
Result: 1.48
